experimental.target: human C1 r (Homo sapiens)
Construct: purchased Enzyme Research Labs (South Bend, Ind.)
Sequence (P00736 464-705 limits assumed): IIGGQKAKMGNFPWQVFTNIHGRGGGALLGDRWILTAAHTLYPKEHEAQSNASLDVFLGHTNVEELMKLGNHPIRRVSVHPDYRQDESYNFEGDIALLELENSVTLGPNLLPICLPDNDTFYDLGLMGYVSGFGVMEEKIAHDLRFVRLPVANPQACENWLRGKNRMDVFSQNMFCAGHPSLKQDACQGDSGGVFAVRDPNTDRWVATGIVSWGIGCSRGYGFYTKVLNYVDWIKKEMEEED
Sequence (P00736 18-463 partner limits assumed): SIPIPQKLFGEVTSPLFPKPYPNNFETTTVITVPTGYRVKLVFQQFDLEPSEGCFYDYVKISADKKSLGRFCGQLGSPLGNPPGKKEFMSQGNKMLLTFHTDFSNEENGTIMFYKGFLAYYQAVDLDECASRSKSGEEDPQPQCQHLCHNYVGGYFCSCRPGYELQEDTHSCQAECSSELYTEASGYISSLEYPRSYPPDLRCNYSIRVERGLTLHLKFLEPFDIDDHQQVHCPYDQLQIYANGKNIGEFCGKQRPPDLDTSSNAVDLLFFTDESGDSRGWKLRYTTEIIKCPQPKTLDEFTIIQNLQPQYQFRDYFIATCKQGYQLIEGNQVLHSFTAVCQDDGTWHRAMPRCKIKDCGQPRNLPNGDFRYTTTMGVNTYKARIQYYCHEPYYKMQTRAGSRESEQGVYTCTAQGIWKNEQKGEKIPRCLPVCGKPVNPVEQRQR
test.name: Assay of C1r Enzyme Activity (Assay 1), thioester substrate z-Gly-Arg-S-Bzl with DTNB
Type: biochemical
cond: Table 1 and text, pH 7.4-7.5, read-out: Inhibition of Clr Assay 1 (IC50)
Experimental: Assay of C1 r Enzyme Activity Purified human C1 r was obtained commercially from Enzyme Research Labs (South Bend, Ind.). The enzyme is stored frozen at -70° C. at a stock concentration of about 1 mg/mL of protein until the enzyme is needed. […] The assay produces a yellow color that is read in the kinetic mode using a Molecular Devices Thermomax microplate reader set to a wavelength of 405 nm. […]
assay.readout: IC50 (µM)

>>> print(df.to_string())
                                   compound        experimental_target  assay_readout  numeric_readout
0  O=c1oc(Nc2ccccc2I)nc2cc3ccccc3cc12 [Example 20]  human C1 r (Homo sapiens)           IC50              1.4

(I) CN(C(=O)c1ccco1)c1nc2ccccc2c(=O)o1 [Example 61]
(II) O=c1oc(Nc2ccccc2I)nc2ccccc12 [Example 4]
(III) O=c1oc(Nc2c(Cl)cccc2Cl)nc2ccccc12 [Example 53]
input: Hey, quick one: sort these by IC50, largest value first please. # respond with the labels, arranged in the requested order
output: I, II, III

The reported numbers originate from patent US5652237A.
